Molecular target: T1, S. cerevisiae Ku80vWA (residues 2-200) (S. cerevisiae, UniProt Q04437 2-200)
T1 sequence (looked up): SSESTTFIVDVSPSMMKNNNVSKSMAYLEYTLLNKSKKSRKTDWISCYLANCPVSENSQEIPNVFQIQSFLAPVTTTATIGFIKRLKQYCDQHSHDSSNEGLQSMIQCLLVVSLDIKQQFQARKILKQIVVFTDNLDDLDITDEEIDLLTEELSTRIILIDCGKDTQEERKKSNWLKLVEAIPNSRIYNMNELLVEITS
Test: ITC
endpoint name: Kd
Number first, unit second.

input: Please report the recorded Kd for EKISNSKLLSLLRSKT (peptide, UniProt P11978 100-115, looked up) [S. cerevisiae Sir4KBM (residues 100-115)] .
output: 5.1 µM
